Each record here notes measured IC50.
molecular target: human glycine transporter 2 (GlyT2 or SLC6A5) (Homo sapiens, UniProt Q9Y345); construct: expressed in transfected cells; host or cells: Xenopus laevis oocytes injected with cRNA; assay: Inhibition of glycine transport currents, two-electrode voltage clamp in oocytes expressing WT GlyT2; type: cell-based; conditions: D-Head group stereochemistry; GlyT2; 30 μM glycine; 95% confidence interval in brackets
Sequence (Q9Y345 whole entry): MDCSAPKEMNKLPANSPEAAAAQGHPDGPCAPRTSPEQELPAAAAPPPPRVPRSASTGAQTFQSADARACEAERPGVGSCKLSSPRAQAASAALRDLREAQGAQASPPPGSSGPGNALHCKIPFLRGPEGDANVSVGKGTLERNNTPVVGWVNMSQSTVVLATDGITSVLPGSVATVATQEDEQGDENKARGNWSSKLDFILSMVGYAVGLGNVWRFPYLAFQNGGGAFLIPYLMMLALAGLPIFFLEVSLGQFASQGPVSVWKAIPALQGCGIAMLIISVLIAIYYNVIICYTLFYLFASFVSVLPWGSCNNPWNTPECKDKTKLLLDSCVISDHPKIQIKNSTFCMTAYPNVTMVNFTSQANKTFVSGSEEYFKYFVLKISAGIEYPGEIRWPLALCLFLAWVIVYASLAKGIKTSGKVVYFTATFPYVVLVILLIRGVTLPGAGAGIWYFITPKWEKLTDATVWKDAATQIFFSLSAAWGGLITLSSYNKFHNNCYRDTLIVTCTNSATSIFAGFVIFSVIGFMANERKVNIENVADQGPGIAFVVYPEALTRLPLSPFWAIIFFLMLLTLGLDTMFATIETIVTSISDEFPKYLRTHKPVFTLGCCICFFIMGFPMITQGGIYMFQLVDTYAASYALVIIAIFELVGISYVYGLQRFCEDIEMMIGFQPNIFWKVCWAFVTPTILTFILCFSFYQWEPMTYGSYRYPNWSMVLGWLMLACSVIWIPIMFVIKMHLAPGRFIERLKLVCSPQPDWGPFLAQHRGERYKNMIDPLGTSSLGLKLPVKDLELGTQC

{"columns": ["molecule", "IC50 / nM"],
 "data": [
  ["CCC=CCCCCCCCCCCCC(=O)NC(CCCCN)C(=O)O (stereo not shown)", 699],
  ["CCCCCC/C=C\\CCCCCCCC(=O)N[C@H](CCCCN)C(=O)O", 602],
  ["CCCC/C=C\\CCCCCCCC(=O)N[C@H](CCCCN)C(=O)O", 1380],
  ["CCCCC=CCCCCCCCCCCCC(=O)NC(CCCCN)C(=O)O (stereo not shown)", 64.9]
]}

These measurements were taken from paper PMC7949037.
